FYI, the data here is from ChEMBL document CHEMBL2390956.

Molecular target: Amyloid-beta precursor protein (Homo sapiens) (UniProt P05067)
Sequence (P05067 whole entry): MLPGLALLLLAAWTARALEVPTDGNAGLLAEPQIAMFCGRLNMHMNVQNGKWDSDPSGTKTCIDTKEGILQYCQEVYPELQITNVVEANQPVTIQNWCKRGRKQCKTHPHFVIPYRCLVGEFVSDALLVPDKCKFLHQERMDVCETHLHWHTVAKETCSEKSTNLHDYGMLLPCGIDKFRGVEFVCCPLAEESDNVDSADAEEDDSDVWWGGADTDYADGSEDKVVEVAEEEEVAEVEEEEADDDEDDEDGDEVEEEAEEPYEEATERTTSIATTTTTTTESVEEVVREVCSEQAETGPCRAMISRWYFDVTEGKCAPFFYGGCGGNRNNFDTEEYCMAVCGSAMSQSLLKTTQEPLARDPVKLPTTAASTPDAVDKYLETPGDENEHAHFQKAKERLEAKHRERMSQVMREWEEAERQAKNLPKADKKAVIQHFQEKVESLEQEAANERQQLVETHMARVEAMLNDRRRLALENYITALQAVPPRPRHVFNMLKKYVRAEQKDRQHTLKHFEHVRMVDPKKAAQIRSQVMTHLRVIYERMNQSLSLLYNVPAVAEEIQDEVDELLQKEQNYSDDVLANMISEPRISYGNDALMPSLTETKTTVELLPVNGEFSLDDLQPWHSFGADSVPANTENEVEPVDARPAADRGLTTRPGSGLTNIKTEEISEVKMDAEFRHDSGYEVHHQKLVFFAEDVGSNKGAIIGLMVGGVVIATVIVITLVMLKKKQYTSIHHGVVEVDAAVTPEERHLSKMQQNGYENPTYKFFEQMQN
Assay: Inhibition of amyloid beta (1 to 42) (unknown origin) aggregation at 20 uM by thioflavin T based fluorometric assay
Measured inhibition, listed per entry.
Give the quantity in %, number only.

Solved cases (3 shown):
| compound | target_desc | unit_abbreviation | inhibition |
| --- | --- | --- | --- |
| Cc1c(OCCCN2CCC(O)CC2)ccc2c(=O)cc(-c3ccccc3)oc12 | Amyloid-beta precursor protein (Homo sapiens) (UniProt P05067) | % | 21.4 |
| Cc1c(OCCCCCN2CCCC2)ccc2c(=O)cc(-c3ccccc3)oc12 | Amyloid-beta precursor protein (Homo sapiens) (UniProt P05067) | % | 39.3 |
| Cc1c(OCCCCCCN2CCCCC2C)ccc2c(=O)cc(-c3ccccc3)oc12 (stereo not given) | Amyloid-beta precursor protein (Homo sapiens) (UniProt P05067) | % | 43.2 |

Recorded result, Cc1c(OCCCN2CCCCC2C)ccc2c(=O)cc(-c3ccccc3)oc12 (stereo not given) , inhibition: 41.7

Recorded result, Cc1c(OCCCCN2CCC(O)CC2)ccc2c(=O)cc(-c3ccccc3)oc12 , inhibition: 22.1

Recorded result, Cc1c(OCCCCCN(C)C)ccc2c(=O)cc(-c3ccccc3)oc12 , inhibition: 37.9

----------
Entries below carry reported pIC50 on UniProt:O42275.
// returns pIC50 (minus log10 of molar concentration), number only

| compound | pIC50 |
| --- | --- |
| Cc1c(OCCCCN2CCOCC2)ccc2c(=O)cc(-c3ccccc3)oc12 | 5.54 |
| Cc1c(OCCCCCCN2CCCCC2C)ccc2c(=O)cc(-c3ccccc3)oc12 (stereo not drawn) | 5.72 |

Item Cc1c(OCCCCN2CCCCC2C)ccc2c(=O)cc(-c3ccccc3)oc12 (stereo not drawn) was tested on UniProt:O42275; the reported pIC50 is 6.65

Item Cc1c(OCCCCCN2CCN(C)CC2)ccc2c(=O)cc(-c3ccccc3)oc12 was tested on UniProt:O42275; the reported pIC50 is 5.73

Item CCN(CC)CCCCOc1ccc2c(=O)cc(-c3ccccc3)oc2c1C was tested on UniProt:O42275; the reported pIC50 is 6.89

Item Cc1c(OCCN2CCCC2)ccc2c(=O)cc(-c3ccccc3)oc12 was tested on UniProt:O42275; the reported pIC50 is 5.69

Item Cc1c(OCCCCCN2CCCCC2)ccc2c(=O)cc(-c3ccccc3)oc12 was tested on UniProt:O42275; the reported pIC50 is 6.48

Item Cc1c(OCCCCCN2CCCC2)ccc2c(=O)cc(-c3ccccc3)oc12 was tested on UniProt:O42275; the reported pIC50 is 6.61

Item Cc1c(OCCCCN(C)C)ccc2c(=O)cc(-c3ccccc3)oc12 was tested on UniProt:O42275; the reported pIC50 is 6.48

----------
Target: Amyloid-beta precursor protein (Homo sapiens)
Experiment: Inhibition of amyloid beta (1 to 42) (unknown origin) aggregation at 20 uM by thioflavin T based fluorometric assay
Measured inhibition, listed per entry.
Reply with the number and its unit after it.

| sample_smiles | measured_property | result |
| --- | --- | --- |
| Cc1c(OCCCCN2CCOCC2)ccc2c(=O)cc(-c3ccccc3)oc12 | inhibition | 20.4% |

Consider the additional molecule presented here.
Item Cc1c(OCCCCCCN2CCCC2)ccc2c(=O)cc(-c3ccccc3)oc12 was tested on Amyloid-beta precursor protein (Homo sapiens); the reported inhibition is 38.1%

----------
Entries below carry reported pIC50 on UniProt:P81908.
// returns pIC50 (minus log10 of molar concentration), number only

| compound | measured_property | numeric_value |
| --- | --- | --- |
| Cc1c(OCCCCCN2CCN(C)CC2)ccc2c(=O)cc(-c3ccccc3)oc12 | pIC50 | 5.31 |
| Cc1c(OCCCCCN2CCCCC2C)ccc2c(=O)cc(-c3ccccc3)oc12 (configuration not stated) | pIC50 | 5.56 |
| Cc1c(OCCN2CCCC2)ccc2c(=O)cc(-c3ccccc3)oc12 | pIC50 | 5.57 |

Item Cc1c(OCCCCCCN2CCCCC2C)ccc2c(=O)cc(-c3ccccc3)oc12 (configuration not stated) was tested on UniProt:P81908; the reported pIC50 is 5.43

Item COC(=O)[C@@H]1CCCN1CCCCCOc1ccc2c(=O)cc(-c3ccccc3)oc2c1C was tested on UniProt:P81908; the reported pIC50 is 5.41

Item Cc1c(OCCCCCN2CCCCC2)ccc2c(=O)cc(-c3ccccc3)oc12 was tested on UniProt:P81908; the reported pIC50 is 5.85

Item Cc1c(OCCCCN2CCN(C)CC2)ccc2c(=O)cc(-c3ccccc3)oc12 was tested on UniProt:P81908; the reported pIC50 is 5.24

Item Cc1c(OCCCCCN(C)C)ccc2c(=O)cc(-c3ccccc3)oc12 was tested on UniProt:P81908; the reported pIC50 is 5.60

----------
Target: Amyloid-beta precursor protein (Homo sapiens) (UniProt P05067)
Test: Inhibition of amyloid beta (1 to 42) (unknown origin) aggregation at 20 uM by thioflavin T based fluorometric assay
Record yes (1) whenever inhibition is at 40% or higher; record no (0) when lower.

| compound | group_label |
| --- | --- |
| Cc1c(OCCN2CCCC2)ccc2c(=O)cc(-c3ccccc3)oc12 | yes (1) |
| Cc1c(OCCCCN(C)C)ccc2c(=O)cc(-c3ccccc3)oc12 | no (0) |
| Cc1c(OCCCCN2CCCCC2)ccc2c(=O)cc(-c3ccccc3)oc12 | no (0) |
| Cc1c(OCCCCN2CCN(C)CC2)ccc2c(=O)cc(-c3ccccc3)oc12 | no (0) |
| Cc1c(OCCCCCN2CCCCC2)ccc2c(=O)cc(-c3ccccc3)oc12 | yes (1) |
| Cc1c(OCCCN2CCCC2)ccc2c(=O)cc(-c3ccccc3)oc12 | no (0) |

Alright, here's another compound for you.
Query: Tell me whether inhibition is at least 40% here: Cc1c(OCCCCCN2CCCCC2C)ccc2c(=O)cc(-c3ccccc3)oc12 (centres undefined)
Response: no (0)

----------
Entries below carry reported pIC50 on Acetylcholinesterase (Electrophorus electricus).
Sequence (O42275 whole entry): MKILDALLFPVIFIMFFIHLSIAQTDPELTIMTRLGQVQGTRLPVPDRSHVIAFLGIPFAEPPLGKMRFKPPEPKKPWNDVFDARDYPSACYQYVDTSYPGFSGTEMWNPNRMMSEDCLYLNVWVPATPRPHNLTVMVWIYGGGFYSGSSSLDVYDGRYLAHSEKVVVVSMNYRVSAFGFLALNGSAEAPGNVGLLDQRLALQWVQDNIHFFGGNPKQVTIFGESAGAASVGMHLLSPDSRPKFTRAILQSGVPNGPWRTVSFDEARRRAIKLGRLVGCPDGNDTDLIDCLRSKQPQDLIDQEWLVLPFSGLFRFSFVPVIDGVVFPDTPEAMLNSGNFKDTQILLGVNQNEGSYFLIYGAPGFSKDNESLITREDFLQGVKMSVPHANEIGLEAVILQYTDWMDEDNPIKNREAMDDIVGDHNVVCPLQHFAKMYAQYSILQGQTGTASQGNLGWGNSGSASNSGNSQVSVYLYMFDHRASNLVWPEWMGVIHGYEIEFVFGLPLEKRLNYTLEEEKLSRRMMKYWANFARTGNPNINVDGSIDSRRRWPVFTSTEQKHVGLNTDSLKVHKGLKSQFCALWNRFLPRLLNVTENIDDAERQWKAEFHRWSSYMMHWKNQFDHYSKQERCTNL
// returns pIC50 (minus log10 of molar concentration), number only

| compound | pIC50 |
| --- | --- |
| Cc1c(OCCCCCCN2CCC(O)CC2)ccc2c(=O)cc(-c3ccccc3)oc12 | 5.50 |
| Cc1c(OCCCCN2CCC(O)CC2)ccc2c(=O)cc(-c3ccccc3)oc12 | 6.22 |
| Cc1c(OCCCCN2CCCC2)ccc2c(=O)cc(-c3ccccc3)oc12 | 6.62 |
| Cc1c(OCCCN2CCCCC2C)ccc2c(=O)cc(-c3ccccc3)oc12 (centres undefined) | 6.23 |
| Cc1c(OCCCCCN2CCOCC2)ccc2c(=O)cc(-c3ccccc3)oc12 | 5.06 |

Consider the additional compound presented here.
Item Cc1c(OCCN2CCCCC2C)ccc2c(=O)cc(-c3ccccc3)oc12 (centres undefined) was tested on Acetylcholinesterase (Electrophorus electricus); the reported pIC50 is 5.68

----------
Measured inhibition, listed per entry.
Molecular target: Amyloid-beta precursor protein (Homo sapiens) (UniProt P05067)
Assay: Inhibition of amyloid beta (1 to 42) (unknown origin) aggregation at 20 uM by thioflavin T based fluorometric assay
Give the quantity in %, number only.

Solved cases (2 shown):
| sample_smiles | target_desc | unit_abbreviation | inhibition |
| --- | --- | --- | --- |
| Cc1c(OCCCCN2CCCC2)ccc2c(=O)cc(-c3ccccc3)oc12 | Amyloid-beta precursor protein (Homo sapiens) (UniProt P05067) | % | 21.8 |
| Cc1c(OCCCCCN2CCC(O)CC2)ccc2c(=O)cc(-c3ccccc3)oc12 | Amyloid-beta precursor protein (Homo sapiens) (UniProt P05067) | % | 37.4 |

Consider the additional molecule presented here.
Recorded result, Cc1c(OCCCCCN2CCOCC2)ccc2c(=O)cc(-c3ccccc3)oc12 , inhibition: 24.6

----------
Entries below carry reported IC50 on Cholinesterase (Equus caballus).
Sequence (P81908 whole entry): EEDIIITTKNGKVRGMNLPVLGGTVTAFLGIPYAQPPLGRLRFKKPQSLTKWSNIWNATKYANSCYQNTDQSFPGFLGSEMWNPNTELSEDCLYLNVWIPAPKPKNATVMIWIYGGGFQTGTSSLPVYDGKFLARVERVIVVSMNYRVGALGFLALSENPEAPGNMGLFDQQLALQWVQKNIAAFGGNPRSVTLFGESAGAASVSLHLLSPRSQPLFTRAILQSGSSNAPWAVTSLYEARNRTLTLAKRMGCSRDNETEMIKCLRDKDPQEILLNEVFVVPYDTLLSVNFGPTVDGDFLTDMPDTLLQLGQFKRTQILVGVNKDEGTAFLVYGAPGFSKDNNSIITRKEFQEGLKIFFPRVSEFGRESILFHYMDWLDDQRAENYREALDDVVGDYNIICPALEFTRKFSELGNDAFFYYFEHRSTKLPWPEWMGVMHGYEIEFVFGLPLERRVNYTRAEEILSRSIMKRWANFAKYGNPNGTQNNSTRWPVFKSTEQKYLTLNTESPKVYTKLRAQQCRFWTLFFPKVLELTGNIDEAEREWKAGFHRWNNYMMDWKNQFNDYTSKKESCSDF
Give the quantity in µM, number only.

| sample_smiles | numeric_value |
| --- | --- |
| Cc1c(OCCCCCCN2CCCC2)ccc2c(=O)cc(-c3ccccc3)oc12 | 3.28 |
| CCN(CC)CCCCOc1ccc2c(=O)cc(-c3ccccc3)oc2c1C | 4.82 |
| Cc1c(OCCCCCCN2CCC(O)CC2)ccc2c(=O)cc(-c3ccccc3)oc12 | 3.93 |
| Cc1c(OCCCCCN2CCC(O)CC2)ccc2c(=O)cc(-c3ccccc3)oc12 | 4.85 |
| COC(=O)[C@@H]1CCCN1CCCCOc1ccc2c(=O)cc(-c3ccccc3)oc2c1C | 3.82 |

Recorded result, Cc1c(OCCCN2CCCC2)ccc2c(=O)cc(-c3ccccc3)oc12 , IC50: 2.78

Recorded result, Cc1c(OCCCCN2CCCC2)ccc2c(=O)cc(-c3ccccc3)oc12 , IC50: 5.7
